- Test target: viral reverse transcriptase (Human immunodeficiency virus type 1 group M subtype B)
- Construct: Viral reverse transcriptase is found in extracts from bacterial clones; made in house; host or cells: Escherichia coli (extracts of bacterial clones, by the procedure of Larder et al., EMBO J. 6:3133-3137, 1987)
- Protocol: Viral reverse transcriptase inhibition, cell free assay
- Assay type: biochemical, human immunodeficiency virus (HIV-1)
- Study conditions: read-out: RT % INHIBITION (100 μM), 100 μM; poly rC or poly rG template
Counter-ions that a name gives are not always drawn.

| Molecule | inhibition at 100 µM |
| --- | --- |
| CCNc1cccnc1N1CCN(C(=O)c2ccc3ccccc3c2)CC1 | 68 to 79% |
| CCOc1ccccc1N1CCN(C(=O)c2cc3cc(OC)ccc3[nH]2)CC1 | 64 to 80% |
| CC(C)Nc1ccnnc1N1CCN(C(=O)c2cc3cc(F)ccc3[nH]2)CC1 | 84 to 97% |
| CC(C)Nc1cccnc1N1CCN(C(=O)c2cc3ccc4ccccc4c3[nH]2)CC1 | 64 to 70% |
| CC(C)Nc1cccnc1N1CCN(C(=O)c2cc3cc(NC(=O)CN)ccc3[nH]2)CC1 [Example 86, hydrochloride] | 78 to 96% |
| CCNc1cccnc1N1CCN(C(=O)c2cc3cc(Cl)ccc3[nH]2)CC1 | 76 to 82% |
| CCNc1cccnc1N1CCN(C(=O)c2cc3ccccc3[nH]2)CC1 | 95 to 98% |
| COc1ccc2cc(C(=O)N3CCN(c4ncccc4NC(C)C)CC3)[nH]c2c1Br | 94% |
| CCNc1cccnc1N1CCN(Cc2cc3cc(OC)ccc3[nH]2)CC1 | 61 to 70% |
| COc1cc2cc(C(=O)N3CCN(c4ncccc4NC(C)C)CC3)[nH]c2cc1OC | 43 to 66% |
| CC(C)Nc1cccnc1N1CCN(C(=O)c2cc3cc(N=CN(C)C)ccc3[nH]2)CC1 | 93 to 96% |
| CC(C)Nc1cccnc1N(C)CCN(C)C(=O)c1cc2ccccc2[nH]1 | 89 to 94% |
| COc1cccc2[nH]c(C(=O)N3CCN(c4ncccc4NC(C)C)CC3)cc12 | 56 to 88% |
| CC(C)Nc1cccnc1N1CCN(C(=O)c2cccc3cc[nH]c23)CC1 | 89 to 98% |
| COc1ccc2[nH]c(C(=O)N3CCN(c4ncccc4NC(C)C)CC3)cc2c1 | 97% |
| CCNc1cccnc1N1CCCN(C(=O)c2cc3cc(F)ccc3[nH]2)CC1 | 87 to 93% |
| CC(C)Nc1cccnc1N1CCN(C(=O)c2cc3cc(O)ccc3[nH]2)CC1 | 96 to 98% |
| CCNc1cccnc1N1CCN(C(=O)c2cc3c(C)c(OC)c(C)c(C)c3[nH]2)CC1 | 63% |
| CCNc1cccnc1N1CCN(C(=O)c2ccc[nH]2)CC1 | 83 to 91% |
| CNc1cccnc1N1CCN(C(=O)c2cc3ccccc3[nH]2)CC1 | 81 to 93% |
| O=C(c1cc2ccccc2[nH]1)N1CCN(c2ncccc2NCCF)CC1 | 92% |
| CCNc1cccnc1N1CCN(C(=O)c2cc(C)c(OC)c(C)c2)CC1 | 60 to 79% |
| COc1ccc2[nH]c(C(=O)N(C)CCN(C)c3ncccc3NC(C)C)cc2c1 | 77 to 87% |
| CCNc1cccnc1N1CCN(Cc2cc3ccccc3[nH]2)CC1 | 64% |
| CC(C)Nc1cccnc1N(C)CCN(C)C(=O)c1cc2cc(F)ccc2[nH]1 | 77 to 89% |
| CC(C)Nc1nccnc1N1CCN(C(=O)c2cc3cc(F)ccc3[nH]2)CC1 | 91% |
| CCNc1cccnc1N1CCN(C(=O)c2cc3cc(O)ccc3[nH]2)CC1 | 82 to 95% |
| CC(C)Nc1cccnc1N1CCN(C(=O)c2cc3cc(OCC(=O)OCc4ccccc4)ccc3[nH]2)CC1 | 60 to 84% |
| CC(C)(C)CNc1cccnc1N1CCN(C(=O)c2cc3cc(F)ccc3[nH]2)CC1 | 48% |
| CC(C)Nc1cccnc1N1CCN(C(=O)c2cccc3c2NCC3)CC1 | 68 to 84% |
| CC(=O)Nc1ccc2[nH]c(C(=O)N3CCN(c4ncccc4NC(C)C)CC3)cc2c1 | 92 to 96% |
| CC(C)Nc1cncnc1N1CCN(C(=O)c2cc3cc(F)ccc3[nH]2)CC1 | 63 to 92% |
| CC(C)Nc1cccnc1OCCN(C)C(=O)c1cc2ccccc2[nH]1 | 94 to 98% |
| CC(C)Nc1cccnc1N(C)C1CCN(C(=O)c2cc3ccccc3[nH]2)CC1 | 85 to 97% |
| CC(C)(C)Nc1cccnc1N1CCN(C(=O)c2cc3ccccc3[nH]2)CC1 | 89% |
